# Measurement target: H^+,K^+ -ATPase (Oryctolagus cuniculus, UniProt P27112)
# Construct: Rabbit gastric glands were homogenized and microsomal fractions were prepared
# Sequence (P27112 2-1035 limits assumed): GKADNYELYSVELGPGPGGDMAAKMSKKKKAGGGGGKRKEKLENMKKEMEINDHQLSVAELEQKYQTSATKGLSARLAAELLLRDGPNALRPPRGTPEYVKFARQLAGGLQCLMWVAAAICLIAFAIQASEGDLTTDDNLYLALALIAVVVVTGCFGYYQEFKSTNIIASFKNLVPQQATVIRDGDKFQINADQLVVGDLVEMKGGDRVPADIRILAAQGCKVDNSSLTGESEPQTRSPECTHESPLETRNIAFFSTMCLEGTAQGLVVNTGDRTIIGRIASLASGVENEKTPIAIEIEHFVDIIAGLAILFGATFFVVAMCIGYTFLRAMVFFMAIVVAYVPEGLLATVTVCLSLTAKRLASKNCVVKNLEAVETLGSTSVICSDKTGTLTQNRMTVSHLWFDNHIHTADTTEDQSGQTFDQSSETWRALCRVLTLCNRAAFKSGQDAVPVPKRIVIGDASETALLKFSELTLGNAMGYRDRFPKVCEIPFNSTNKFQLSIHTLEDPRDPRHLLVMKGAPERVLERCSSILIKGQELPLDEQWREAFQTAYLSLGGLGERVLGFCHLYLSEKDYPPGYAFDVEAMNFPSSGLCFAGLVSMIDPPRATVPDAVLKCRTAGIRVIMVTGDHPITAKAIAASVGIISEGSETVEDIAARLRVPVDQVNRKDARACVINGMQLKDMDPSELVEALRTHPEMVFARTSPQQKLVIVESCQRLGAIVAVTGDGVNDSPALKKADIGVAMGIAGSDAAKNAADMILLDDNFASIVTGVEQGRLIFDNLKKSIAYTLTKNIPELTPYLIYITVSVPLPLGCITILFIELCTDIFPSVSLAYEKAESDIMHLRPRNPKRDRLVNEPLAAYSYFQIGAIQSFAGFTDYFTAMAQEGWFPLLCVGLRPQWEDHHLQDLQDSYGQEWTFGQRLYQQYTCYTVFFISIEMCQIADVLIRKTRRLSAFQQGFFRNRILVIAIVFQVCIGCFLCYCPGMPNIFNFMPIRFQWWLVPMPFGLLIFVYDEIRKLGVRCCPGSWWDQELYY
# Sequence (P18597 whole entry partner): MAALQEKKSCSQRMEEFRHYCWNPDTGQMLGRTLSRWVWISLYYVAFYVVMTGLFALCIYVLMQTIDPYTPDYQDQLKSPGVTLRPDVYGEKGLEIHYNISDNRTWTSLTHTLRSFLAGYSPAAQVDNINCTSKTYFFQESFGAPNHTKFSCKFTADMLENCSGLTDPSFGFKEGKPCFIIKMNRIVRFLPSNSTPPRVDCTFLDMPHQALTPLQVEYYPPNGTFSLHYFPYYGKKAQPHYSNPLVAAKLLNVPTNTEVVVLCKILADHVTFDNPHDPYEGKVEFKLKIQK
# Assay: Inhibitory effects on the activity of H^+,K^+ -ATPase
# Run parameters: H^+,K^+ -ATPase-containing light membrane fractions from rabbit gastric glands; read-out: 50% Enzyme inhibitory concentration (IC50)
pIC50: −log10 of the molar value. Where a name gives a salt, the structure may show the parent alone.
Measure name: pIC50

# example entries with known answers
compound="Cc1cnc(/C=C\\c2cccc3ccccc23)cc1N1CCCC(C)C1 (centres unmarked)" recorded_measurement=5.77
compound="Cc1cnc(/C=C\\c2ccc(Cl)c3ccccc23)cc1N1CCCCC1.Cl [Test compound 8, hydrochloride]" recorded_measurement=5.32
compound=C(=C/c1cnccc1N1CCCCC1)/c1ccc2ccccc2c1 recorded_measurement=5.59
compound="Cc1cnc(/C=C\\c2cccc(Cl)c2Cl)cc1N1CCCCC1 [Test compound 20, hydrochloride]" recorded_measurement=5.34
compound="Cc1cnc(/C=C/c2ccc3ccccc3c2)cc1N1CCCCC1 [Test compound 17, hydrochloride]" recorded_measurement=5.37
compound="Cc1cnc(CCc2cccc3ccccc23)cc1N1CCC(C)CC1.Cl [Test compound 21, hydrochloride]" recorded_measurement=5.57

1 = Cc1ccc2cc(CCc3cc(N4CCCCC4)c(C)cn3)ccc2c1 [Test compound 29, hydrochloride]
2 = Cc1cnc(/C=C\c2ccc(F)c3ccccc23)cc1N1CCCCC1
Smaller pIC50 value? Options are 1 and 2 Answer with the label corresponding to your selection.
2
(2: 5.23, 1: 5.64)

---

# Measurement target: H^+,K^+ -ATPase (Oryctolagus cuniculus)
# Construct: Rabbit gastric glands were homogenized and microsomal fractions were prepared
# Assay: Inhibitory effects on the activity of H^+,K^+ -ATPase
# Run parameters: H^+,K^+ -ATPase-containing light membrane fractions from rabbit gastric glands; read-out: 50% Enzyme inhibitory concentration (IC50)
pIC50: −log10 of the molar value. Where a name gives a salt, the structure may show the parent alone.
Measure name: pIC50

# example entries with known answers
compound="Cc1cnc(/C=C\\c2cccc3ccccc23)cc1N1CCCCC1 [compound 7]" recorded_measurement=5.66
compound="Cc1cnc(COc2ccc(C(C)(C)C)cc2)cc1N1CCCCC1 [compound 2]" recorded_measurement=5.46
compound="Cc1cnc(CCc2ccc(C)c3ccccc23)cc1N1CCCCC1 [Test compound 23, hydrochloride]" recorded_measurement=5.34
compound="Cc1cnc(/C=C\\c2ccc3ccccc3c2)cc1N1CCCCC1 [Test compound 18, hydrochloride]" recorded_measurement=5.08
compound="Cc1cnc(CCc2cccc3ccccc23)cc1OC1CCCCC1.Cl [Test compound 25, hydrochloride]" recorded_measurement=5.59
compound="Cc1cnc(COc2ccc(C3CCCCC3)cc2)cc1N1CCCCC1 [compound 4]" recorded_measurement=5.42

1 = Cc1cnc(CSc2ccccc2)cc1N1CCCCC1.Cl [Test compound 5, hydrochloride]
2 = Cc1cnc(CCc2ccc3ccccc3c2)cc1N1CCCCC1.Cl [Test compound 28, hydrochloride]
3 = Cc1cnc(CSc2ccc3ccccc3c2)cc1N1CCCCC1.Cl [Test compound 6, hydrochloride]
4 = Cc1cnc(/C=C\c2cccc3ccccc23)cc1N1CCCCCC1 [compound 13]
Please rank these compounds by pIC50 in descending order. Answer by writing out the labels in the requested order.
4, 2, 3, 1
(4: 6.11, 2: 5.52, 3: 5.05, 1: 4.80)

---

# Measurement target: H^+,K^+ -ATPase (Oryctolagus cuniculus)
# Construct: Rabbit gastric glands were homogenized and microsomal fractions were prepared
# Assay: Inhibitory effects on the activity of H^+,K^+ -ATPase
# Run parameters: H^+,K^+ -ATPase-containing light membrane fractions from rabbit gastric glands; read-out: 50% Enzyme inhibitory concentration (IC50)
pIC50: −log10 of the molar value. Counter-ions that a name gives are not always drawn.
Measure name: pIC50

# example entries with known answers
compound="Cc1cnc(/C=C\\c2cccc3c(C)cccc23)cc1N1CCCCC1 [Test compound 10, hydrochloride]" measurement_target="H^+,K^+ -ATPase (Oryctolagus cuniculus)" recorded_measurement=5.22
compound="Cc1cnc(/C=C\\c2cccc3cccc(C)c23)cc1N1CCCCC1 [Test compound 11]" measurement_target="H^+,K^+ -ATPase (Oryctolagus cuniculus)" recorded_measurement=5.64
compound="Cc1cnc(CCc2cccc3ccccc23)cc1N1CCCCC1 [Test compound 22, hydrochloride]" measurement_target="H^+,K^+ -ATPase (Oryctolagus cuniculus)" recorded_measurement=5.44

1 = CCC(C)c1ccc(OCc2cc(N3CCCCC3)c(C)cn2)cc1 (centres unmarked) [compound 3]
2 = Cc1ccc2cc(/C=C\c3cc(N4CCCCC4)c(C)cn3)ccc2c1 [Test compound 19]
3 = Cc1cnc(CCc2cccc3ccccc23)cc1N1CCCC(C)C1.Cl (centres unmarked) [Test compound 26, hydrochloride]
Sort low-to-high on pIC50, please. Answer by writing out the labels in the requested order.
2, 1, 3
(2: 5.11, 1: 5.39, 3: 5.77)

P = Cc1cnc(/C=C\c2cccc3ccccc23)cc1N1CCC(C)CC1.Cl [Test compound 14, hydrochloride]
Q = Cc1cnc(CCc2cccc3cccc(C)c23)cc1N1CCCCC1.Cl [Test compound 24, hydrochloride]
Smaller pIC50 value? Options are P and Q Answer with the label corresponding to your selection.
Q

These data points were gathered from patent US4839353A.
